- System: 883617-216-R-J1-PDC complex spheroid viability
- assay-text: Anticancer human tumor 883617-216-R-J1-PDC patient-derived bladder carcinoma cell line growth inhibition [POLQ]
- settings: compound alone; run of 01/19/2024
result-type: IC50

# compound, result-type, endpoint-result
data = [
    ("Nc1ccc(C#CCN(C(=O)Cc2ncc(C(F)(F)F)cc2C(F)(F)F)c2ccc(F)cc2)nn1", "IC50", "> 10 µM"),
]

Now for a further compound.
Need IC50 of Cc1cccc(N(C)C(=O)C2C(O)CCN2c2nc(C)cc(C(F)(F)F)c2C#N)c1 (configuration not stated) , thanks.
> 10 µM

----------
Could you please report measured viability, T/C for the items listed next?
- Tested on: 883617-216-R-J1-PDC complex spheroid viability
- assay-text: Anticancer human tumor 883617-216-R-J1-PDC cell line growth inhibition [POLQ];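 note: spheroids exposed to compounds for seven days before readout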;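 for viability, T/C: 100% = DMSO vehicle control viability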
- settings: second compound 0.316 µM; first compound 0.1 µM; stronger effect = lower value

Solved cases (3 shown):
# compound, assay-target, viability, T/C
measured = [
    ("CC1COCCN1c1cc(C2(S(C)(=N)=O)CC2)nc(-c2ccnc3[nH]ccc23)n1 (stereo not given) + Nc1ccc(C#CCN(C(=O)Cc2ncc(C(F)(F)F)cc2C(F)(F)F)c2ccc(F)cc2)nn1", "883617-216-R-J1-PDC complex spheroid viability", "111%"),
    ("Cn1ncnc1[C@H]1c2n[nH]c(=O)c3cc(F)cc(c23)N[C@@H]1c1ccc(F)cc1 + Nc1ccc(C#CCN(C(=O)Cc2ncc(C(F)(F)F)cc2C(F)(F)F)c2ccc(F)cc2)nn1", "883617-216-R-J1-PDC complex spheroid viability", "77.5%"),
    ("CCc1cc2c(N3CCc4c(cc(Cn5ccnc5)cc4-c4cn(C)nc4C(F)(F)F)C3=O)cc(C)nc2c(OC)n1 + COC1C(OC(N)=O)C(O)C(Oc2ccc3c(O)c(NC(=O)c4ccc(O)c(CC=C(C)C)c4)c(=O)oc3c2C)OC1(C)C", "883617-216-R-J1-PDC complex spheroid viability", "109%"),
]

I'm hoping you can list viability, T/C for every compound here, please.
1. O=C(Nc1ccc(O)c(NS(=O)(=O)c2ccc(F)cc2)c1)c1ccc(-c2ccccc2)cc1 + COC1C(OC(N)=O)C(O)C(Oc2ccc3c(O)c(NC(=O)c4ccc(O)c(CC=C(C)C)c4)c(=O)oc3c2C)OC1(C)C
2. CCc1cc2c(N3CCc4c(cc(Cn5ccnc5)cc4-c4cn(C)nc4C(F)(F)F)C3=O)cc(C)nc2c(OC)n1 + Cc1cccc(N(C)C(=O)C2C(O)CCN2c2nc(C)cc(C(F)(F)F)c2C#N)c1

104%
89.2%

----------
- Tested on: 883617-216-R-J1-PDC complex spheroid viability
- assay-text: Anticancer human tumor 883617-216-R-J1-PDC cell line growth inhibition [POLQ];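 note: spheroids exposed to compounds for seven days before readout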;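 for viability, T/C: 100% = DMSO vehicle control viability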
- settings: second compound 3.16 µM; first compound 0.00316 µM; stronger effect = lower value
Could you please report measured viability, T/C for the items listed next?
Give bare numbers, in %.

I'm hoping you can list viability, T/C for every molecule here, please.
1. CC[C@@]1(O)C(=O)OCc2c1cc1n(c2=O)Cc2cc3c(CN(C)C)c(O)ccc3nc2-1 + COC1C(OC(N)=O)C(O)C(Oc2ccc3c(O)c(NC(=O)c4ccc(O)c(CC=C(C)C)c4)c(=O)oc3c2C)OC1(C)C
2. Cn1ncnc1[C@H]1c2n[nH]c(=O)c3cc(F)cc(c23)N[C@@H]1c1ccc(F)cc1 + Nc1ccc(C#CCN(C(=O)Cc2ncc(C(F)(F)F)cc2C(F)(F)F)c2ccc(F)cc2)nn1
3. CCc1c2c(nc3ccc(O)cc13)-c1cc3c(c(=O)n1C2)COC(=O)[C@]3(O)CC + Cc1cccc(N(C)C(=O)C2C(O)CCN2c2nc(C)cc(C(F)(F)F)c2C#N)c1
4. C=CCn1c(=O)c2cnc(Nc3ccc(N4CCN(C)CC4)cc3)nc2n1-c1cccc(C(C)(C)O)n1 + Cc1cccc(N(C)C(=O)C2C(O)CCN2c2nc(C)cc(C(F)(F)F)c2C#N)c1
5. C=CCn1c(=O)c2cnc(Nc3ccc(N4CCN(C)CC4)cc3)nc2n1-c1cccc(C(C)(C)O)n1 + Nc1ccc(C#CCN(C(=O)Cc2ncc(C(F)(F)F)cc2C(F)(F)F)c2ccc(F)cc2)nn1
6. Cn1ncnc1[C@H]1c2n[nH]c(=O)c3cc(F)cc(c23)N[C@@H]1c1ccc(F)cc1 + COC1C(OC(N)=O)C(O)C(Oc2ccc3c(O)c(NC(=O)c4ccc(O)c(CC=C(C)C)c4)c(=O)oc3c2C)OC1(C)C
7. Cn1ncnc1[C@H]1c2n[nH]c(=O)c3cc(F)cc(c23)N[C@@H]1c1ccc(F)cc1 + Cc1cccc(N(C)C(=O)C2C(O)CCN2c2nc(C)cc(C(F)(F)F)c2C#N)c1
8. COc1cccc(OCCCN)c1-c1cc(Nc2cnc(C#N)cn2)n[nH]1 + Nc1ccc(C#CCN(C(=O)Cc2ncc(C(F)(F)F)cc2C(F)(F)F)c2ccc(F)cc2)nn1

1: 93.4; 2: 90.2; 3: 71.6; 4: 104; 5: 115; 6: 101; 7: 94.8; 8: 85.9

I'm hoping you can list viability, T/C for every molecule here, please.
1. CCc1c2c(nc3ccc(O)cc13)-c1cc3c(c(=O)n1C2)COC(=O)[C@]3(O)CC + Nc1ccc(C#CCN(C(=O)Cc2ncc(C(F)(F)F)cc2C(F)(F)F)c2ccc(F)cc2)nn1
2. C=CCn1c(=O)c2cnc(Nc3ccc(N4CCN(C)CC4)cc3)nc2n1-c1cccc(C(C)(C)O)n1 + COC1C(OC(N)=O)C(O)C(Oc2ccc3c(O)c(NC(=O)c4ccc(O)c(CC=C(C)C)c4)c(=O)oc3c2C)OC1(C)C

[94.8, 106]

----------
- System: 883617-216-R-J1-PDC complex spheroid viability
- assay-text: Anticancer human tumor 883617-216-R-J1-PDC cell line growth inhibition [POLQ];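 note: spheroids exposed to compounds for seven days before readout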;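 for viability, T/C: 100% = DMSO vehicle control viability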
- settings: second compound 3.16 µM; first compound 0.316 µM; stronger effect = lower value
Could you please report measured viability, T/C for the items listed next?
Answers are plain numbers, in %.

Solved cases (4 shown):
# compound, scale-unit, viability, T/C
data = [
    ("O=C(Nc1ccc(O)c(NS(=O)(=O)c2ccc(F)cc2)c1)c1ccc(-c2ccccc2)cc1 + Nc1ccc(C#CCN(C(=O)Cc2ncc(C(F)(F)F)cc2C(F)(F)F)c2ccc(F)cc2)nn1", "%", 104),
    ("COc1cccc2c1C(=O)c1c(O)c3c(c(O)c1C2=O)CC(O)(C(=O)CO)CC3OC1CC(N)C(O)C(C)O1 (stereo not given) + Nc1ccc(C#CCN(C(=O)Cc2ncc(C(F)(F)F)cc2C(F)(F)F)c2ccc(F)cc2)nn1", "%", 56.6),
    ("C=CCn1c(=O)c2cnc(Nc3ccc(N4CCN(C)CC4)cc3)nc2n1-c1cccc(C(C)(C)O)n1 + Nc1ccc(C#CCN(C(=O)Cc2ncc(C(F)(F)F)cc2C(F)(F)F)c2ccc(F)cc2)nn1", "%", 115),
    ("Nc1ccn(C2OC(CO)C(O)C2(F)F)c(=O)n1 (stereo not given) + COC1C(OC(N)=O)C(O)C(Oc2ccc3c(O)c(NC(=O)c4ccc(O)c(CC=C(C)C)c4)c(=O)oc3c2C)OC1(C)C", "%", 39.9),
]

Now for a further compound.
Query viability, T/C on 883617-216-R-J1-PDC complex spheroid viability for CC1COCCN1c1cc(C2(O)CC3CCC(C2)O3)c2cnn(-c3ccn[nH]3)c2n1 (stereo not given) + COC1C(OC(N)=O)C(O)C(Oc2ccc3c(O)c(NC(=O)c4ccc(O)c(CC=C(C)C)c4)c(=O)oc3c2C)OC1(C)C
40.9

----------
- Test system: 883617-216-R-J1-PDC complex spheroid viability
- assay-text: Anticancer human tumor 883617-216-R-J1-PDC cell line growth inhibition [POLQ]; active means viability on the fitted dose curve at most 10% of control; inactive means the rest;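 note: spheroids exposed to compounds for seven days before readout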
- settings: second compound 0.0316 µM; first compound 10 µM
Lab note: assign the record to one of True for active, False for inactive

Observe how each entry below is paired with its result.
# compound, classification
rows = [
    ("CC1COCCN1c1cc(-c2ccnn2C)c2ccnc(-c3ccn[nH]3)c2n1 (centres undefined) + Nc1ccc(C#CCN(C(=O)Cc2ncc(C(F)(F)F)cc2C(F)(F)F)c2ccc(F)cc2)nn1", "False"),
    ("CCc1cc2c(N3CCc4c(cc(Cn5ccnc5)cc4-c4cn(C)nc4C(F)(F)F)C3=O)cc(C)nc2c(OC)n1 + Nc1ccc(C#CCN(C(=O)Cc2ncc(C(F)(F)F)cc2C(F)(F)F)c2ccc(F)cc2)nn1", "False"),
    ("COc1cccc2c1C(=O)c1c(O)c3c(c(O)c1C2=O)CC(O)(C(=O)CO)CC3OC1CC(N)C(O)C(C)O1 (centres undefined) + Cc1cccc(N(C)C(=O)C2C(O)CCN2c2nc(C)cc(C(F)(F)F)c2C#N)c1", "True"),
]

API: the following record is the query input.
Recorded call for COc1cc(C2c3cc4c(cc3C(OC3OC5COC(C)OC5C(O)C3O)C3COC(=O)C23)OCO4)cc(OC)c1O (centres undefined) + COC1C(OC(N)=O)C(O)C(Oc2ccc3c(O)c(NC(=O)c4ccc(O)c(CC=C(C)C)c4)c(=O)oc3c2C)OC1(C)C ?
False
